Molecular target: T1, S100A4 C81D mutant (studied in vitro) (UniProt P26447 1-101, C81D)
T1 construct: Parent: m1
T1 sequence (P26447 whole entry C81D, one chain of several): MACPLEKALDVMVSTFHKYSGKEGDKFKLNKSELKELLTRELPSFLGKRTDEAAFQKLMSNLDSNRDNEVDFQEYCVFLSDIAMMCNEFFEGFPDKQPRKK
Assay: NMR titration; S100A4 V77D and C81D mutants (Figures S3C and S3D); the myosin fragment is not given
Conditions: both partners purified
pKd: −log10 of the molar value.
READOUT NAME: pKd

QRELEDATETADAMNREVSSLKNKLRRGDLPFVVPRRMA (peptide, UniProt P35579 1897-1935, looked up, nonmuscle myosin IIA (NMIIA) heavy chain, residues Q1897-A1935; Unmodified (no fluorescent label); also called u-M39; source: synthetic peptide) [M39, nonmuscle myosin IIA heavy chain peptide (residues Q1897–A1935)] yielded pKd of ~4.00
